ASSAY_TARGET: T1, calcitonin receptor extracellular domain (hCTR.34–141-H6) (human, UniProt P30988 34-141)
T1 construct: human calcitonin receptor (CTR), extracellular domain, residues 34-141; Secreted from a pHLsec-based vector; also called CTR ECD; purified CTR ECD; source: HEK293T, transiently transfected, secreted to cell culture media, purified (IMAC, SEC)
T1 sequence (looked up): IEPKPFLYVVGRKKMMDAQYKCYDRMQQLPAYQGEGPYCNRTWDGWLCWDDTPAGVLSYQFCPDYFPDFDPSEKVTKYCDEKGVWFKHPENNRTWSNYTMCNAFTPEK
TEST_SUMMARY: fluorescence polarisation; competition binding, full curves: FITC-sCT(22–32) probe 10 nM, CTR ECD 500 nM, competitive peptide at multiple concentrations, all in solution; KI from non-linear regression of anisotropy
COND: both partners purified
Where no end group is shown, it is not given here. [ ]: non-standard residue; d: D form. Hyp = O=C(O)[C@@H]1C[C@@H](O)CN1
REPORTED_METRIC: pKI

// solved cases for pKI follow
*Q* Endpoint output: pKI of YPRTDTGVGTP-NH2 (salmon calcitonin (sCT), residues 22-32, with N26D and S29V; numbers count on: the mature 32-residue hormone; source: synthetic peptide (Genscript, HPLC-purified)) [sCT(22–32) N26D/S29V] . Value?
*A* 6.23 -log10(M)

*Q* Endpoint output: pKI of YPRTNTGSGT[Hyp]-NH2 (N-terminus assumed; SMILES C[C@@H](O)[C@H](NC(=O)[C@H](CC(N)=O)NC(=O)[C@@H](NC(=O)[C@H](CCCNC(=N)N)NC(=O)[C@@H]1CCCN1C(=O)[C@@H](N)Cc1ccc(O)cc1)[C@@H](C)O)C(=O)NCC(=O)N[C@@H](CO)C(=O)NCC(=O)N[C@H](C(=O)N1C[C@H](O)C[C@H]1C(N)=O)[C@@H](C)O, salmon calcitonin (sCT), residues 22-32, with P32HYP; numbers count on: the mature 32-residue hormone; Residue 32 is hydroxyproline, not plain proline; source: synthetic peptide (Genscript, HPLC-purified)) [sCT(22–32) P32HYP] . Value?
*A* 6.05 -log10(M)

*Q* Endpoint output: pKI of YPRTDTGPGT[Hyp]-NH2 (salmon calcitonin (sCT), residues 22-32, with N26D, S29P and P32HYP; numbers count on: the mature 32-residue hormone; Residue 32 is hydroxyproline, not plain proline; also called the mutated sCT(22–32); sCT(22–32) with the combined mutations (N26D, S29P, and P32HYP); source: synthetic peptide (Genscript, HPLC-purified)) [sCT(22–32) N26D/S29P/P32HYP] . Value?
*A* 7.02 -log10(M)

*Q* Endpoint output: pKI of YPRTDTG[Hyp]GTP-NH2 (N-terminus assumed; SMILES C[C@@H](O)[C@H](NC(=O)[C@H](CC(=O)O)NC(=O)[C@@H](NC(=O)[C@H](CCCNC(=N)N)NC(=O)[C@@H]1CCCN1C(=O)[C@@H](N)Cc1ccc(O)cc1)[C@@H](C)O)C(=O)NCC(=O)N1C[C@H](O)C[C@H]1C(=O)NCC(=O)N[C@H](C(=O)N1CCC[C@H]1C(N)=O)[C@@H](C)O, salmon calcitonin (sCT), residues 22-32, with N26D and S29HYP; printed as YPRTDTG[HYP]GTP-NH2, the hydroxyproline at 29 is written here as P; numbers count on: the mature 32-residue hormone; Residue 29 is hydroxyproline, not plain proline; source: synthetic peptide (Genscript, HPLC-purified)) [sCT(22–32) N26D/S29HYP] . Value?
*A* 5.5 -log10(M)

*Q* Endpoint output: pKI of YPRTNTGPGTP-NH2 (salmon calcitonin (sCT), residues 22-32, with S29P; numbers count on: the mature 32-residue hormone; source: synthetic peptide (Genscript, HPLC-purified)) [sCT(22–32) S29P] . Value?
*A* 6.46 -log10(M)

Below: the item to evaluate.
*Q* Endpoint output: pKI of YPRTDTGAGTP-NH2 (salmon calcitonin (sCT), residues 22-32, with N26D and S29A; numbers count on: the mature 32-residue hormone; source: synthetic peptide (Genscript, HPLC-purified)) [sCT(22–32) N26D/S29A] . Value?
*A* 6.36 -log10(M)
